- Test system: TO-3-N3-2 (biotin conjugate)
- ASSAY DETAILS: pull-down binding Z-score (relative to library population); higher = stronger binding
- CONDITION INFO: RNA library: Library-2
METRIC NAME: pull-down binding Z-score

[Q] Suppose we examine the sequence CAGUGAACUAUCAUUGUGCCACUG [hsa-mir-1254-1] ; what pull-down binding Z-score value has been reported?
[A] -0.125

[Q] Suppose we examine the sequence `AACCCUCACCUUAUGGGUU` ; what pull-down binding Z-score value has been reported?
[A] -0.745

[Q] Suppose we examine the sequence `ACAGUAUGUCUUUUGUACUGU` ; what pull-down binding Z-score value has been reported?
[A] -0.336

[Q] Suppose we examine the sequence `AGUUCAAGAAAUUCAACU` ; what pull-down binding Z-score value has been reported?
[A] -0.224

[Q] Suppose we examine the sequence GGUAAGGUCUUUCAGCC [hsa-mir-7150] ; what pull-down binding Z-score value has been reported?
[A] 0.105

[Q] Suppose we examine the sequence CUGGCAGUAACCAG [SHAPE_invivo_SARS-CoV-2_Motif_538] ; what pull-down binding Z-score value has been reported?
[A] -0.422

[Q] Suppose we examine the sequence GGAUCCCGACUGGCGAGAGCCAGGUAACGAAUGGAUCC [MG-aptamer] ; what pull-down binding Z-score value has been reported?
[A] -0.524

[Q] Suppose we examine the sequence `UGUCUUUCGAUCAAAACCUGGAUUAUCAAAUAGGAUACAUCUGCAGUGGGGUUUUCGGUGACAACCCGCGUCCCGAAGAUGGAACAGGCA` ; what pull-down binding Z-score value has been reported?
[A] -0.424

[Q] Suppose we examine the sequence GCAGGGACCCCUCCAAGUUGGGGACGGCAGC [hsa-mir-6858] ; what pull-down binding Z-score value has been reported?
[A] 0.0497

[Q] Suppose we examine the sequence GUGAUUACAUUAAAACUUAAAAUUUCAC [hsa-mir-4719] ; what pull-down binding Z-score value has been reported?
[A] -0.244

[Q] Suppose we examine the sequence `UAAAUAAGGGACACUUUGAUGGACAACAGGGUGAAGUACCAGUUUCUAUCAUUAAUAACACUGUUUACACAAAAGUUGAUGGUGUUGAUGUAGAAUUGUUUG` ; what pull-down binding Z-score value has been reported?
[A] 0.0932

[Q] Suppose we examine the sequence GCUGGAGUAAGGGCACGCCCGGGGCUGC [hsa-mir-4758] ; what pull-down binding Z-score value has been reported?
[A] 0.383

[Q] Suppose we examine the sequence UGUAUAGUAUUAUUCAAUACC [hsa-mir-1912] ; what pull-down binding Z-score value has been reported?
[A] -0.0289

[Q] Suppose we examine the sequence UAAUAACUGACAAACAGACAAUUG [hsa-mir-4774] ; what pull-down binding Z-score value has been reported?
[A] -0.145

[Q] Suppose we examine the sequence GGACCCUCUCUCUACCUCU [hsa-mir-4315-1_4315-2] ; what pull-down binding Z-score value has been reported?
[A] -0.12

[Q] Suppose we examine the sequence AUAUGAGCUUCAUUUAUACAUUUCAUAU [hsa-mir-556] ; what pull-down binding Z-score value has been reported?
[A] -0.0541

[Q] Suppose we examine the sequence GUCAGUCCCAAUCUGAAUCCCACCAAAAUAGGUGGUAGAGGGUUGC [hsa-mir-4290] ; what pull-down binding Z-score value has been reported?
[A] 0.249

[Q] Suppose we examine the sequence `CAAGGGUACACACCACUG` ; what pull-down binding Z-score value has been reported?
[A] -0.131

[Q] Suppose we examine the sequence GUGCCCAAAAUACGUCAGGAGUGC [IAV_invivo_HA_4_Motif_13+IAV_invivo_HA_4_Motif_13] ; what pull-down binding Z-score value has been reported?
[A] 0.129

[Q] Suppose we examine the sequence UCCAGAGGCAUCCCUAACCCAGAAUCUUUUGACUGUCCUCUGGA [hsa-mir-4306] ; what pull-down binding Z-score value has been reported?
[A] -0.358

[Q] Suppose we examine the sequence GAGCCUUAAAGGAUGAGGUA [hsa-mir-4280] ; what pull-down binding Z-score value has been reported?
[A] 0.063

[Q] Suppose we examine the sequence GUUUUACUAUGAUGAGGUGUGCCAUCCACCCCAUCAUAGUAAAC [hsa-mir-606] ; what pull-down binding Z-score value has been reported?
[A] -0.139

[Q] Suppose we examine the sequence `CACGUCCAACUCAGUUUGCCUGUUUUACAGGUUCGCGACGUG` ; what pull-down binding Z-score value has been reported?
[A] -0.0582

[Q] Suppose we examine the sequence AGAAAGUGAAACACUAUUUUAGGUUUU [hsa-mir-4458] ; what pull-down binding Z-score value has been reported?
[A] -0.00981

[Q] Suppose we examine the sequence GCUUGGAGCCUUGGUAGGGAAGCAAGCUGAGGAGAUAGGA [hsa-mir-7154] ; what pull-down binding Z-score value has been reported?
[A] 0.627

[Q] Suppose we examine the sequence GCGCAGCCAGAAACUGGCAGCGC [mismatch-AA] ; what pull-down binding Z-score value has been reported?
[A] -0.365

[Q] Suppose we examine the sequence ACACAUUCUGACAAAUUCACAGAUGGUGU [SHAPE_invitro_SARS-CoV-2_Motif_350] ; what pull-down binding Z-score value has been reported?
[A] -0.395

[Q] Suppose we examine the sequence GGUAGAGAUGAUUUUUCCUACU [hsa-mir-5003] ; what pull-down binding Z-score value has been reported?
[A] 0.65

[Q] Suppose we examine the sequence GCUGAGCCCUUUGAUAAGGGGGAGGUU [hsa-mir-8080] ; what pull-down binding Z-score value has been reported?
[A] -0.219

[Q] Suppose we examine the sequence `GUUGAUGAGCCUGAAGAACAUGUCCAAAUUCACACAAUCGACGGUUCAUCCGGAGUUGUUAAUCCAGUAAUGGAACCAAUUUAUGAUGAACCGACGACGAC` ; what pull-down binding Z-score value has been reported?
[A] -0.311

[Q] Suppose we examine the sequence ACAACAGGAGUCACCUUUUGU [DMSMaPseq_invitro_SARS-CoV-2_Motif_108] ; what pull-down binding Z-score value has been reported?
[A] -0.592

[Q] Suppose we examine the sequence GACUACUAGCGUGCCUUUGUAAGCACAAGCUGAUGAGUACGAACUUAUGUACUCAUUCGUUUCGGAAGAGACAGGUACGUUAAUAGUU [SHAPE_invitro_SARS-CoV-2_Multi_71_ComplexLevel_1] ; what pull-down binding Z-score value has been reported?
[A] 0.392

[Q] Suppose we examine the sequence UGCUUCAGUUUCACUCCAAGCA [hsa-mir-4771-2_4771-1] ; what pull-down binding Z-score value has been reported?
[A] -0.126

[Q] Suppose we examine the sequence `GAGUUACACAGAAUGUUCUCUAUGAGAACCAAAAAUUGAUUGCCAACCAAUUUAAUAGUGCUAUUGGCAAAAUUCAAGACUC` ; what pull-down binding Z-score value has been reported?
[A] 0.305

[Q] Suppose we examine the sequence AGAUGUGUUUCCAUUCCACUAUCAUAAU [hsa-mir-365a] ; what pull-down binding Z-score value has been reported?
[A] -0.128

[Q] Suppose we examine the sequence GCCAGAUGCUGAGCGAUGGC [hsa-mir-4730] ; what pull-down binding Z-score value has been reported?
[A] -0.12

[Q] Suppose we examine the sequence CGUGCAAGUUUAAGUUUUUGCACG [hsa-mir-4445] ; what pull-down binding Z-score value has been reported?
[A] -0.0878

[Q] Suppose we examine the sequence AGCCCUGUUGUUGUAAGAUAGUGU [hsa-mir-550a-1] ; what pull-down binding Z-score value has been reported?
[A] -0.124

[Q] Suppose we examine the sequence AAAUAAGUAUGAUACUUACCUG [U1snRNP5ss-4] ; what pull-down binding Z-score value has been reported?
[A] -0.0682

[Q] Suppose we examine the sequence CUCAAACCCGUCCUUGAUUGGCUUGAAGAGAAGUUUAAGGAAGGUGUAGAG [DMSMaPseq_invitro_SARS-CoV-2_Motif_41] ; what pull-down binding Z-score value has been reported?
[A] -0.174
